Test system: RPMI-8226 (Leukemia)
Experiment: NCI60 screen (SRB)
Assay type: cell-based, human
Conditions: one dose 10 µM, 48 h
Readings of growth percent for the listed compounds
Give the value, in units of %, as a plain number.

Consider the reported growth percent for these compounds:
Compound: COc1ccc(C2CC(n3ccnc3)c3cc(OC)c(OC)c(OC)c32)cc1O (centres unmarked) [Compound 27a]
Subject of test: RPMI-8226 (Leukemia)
Units label: %
growth percent: 94.65
//
Compound: COc1ccc(/C=C/C(c2cc(OC)c(OC)c(OC)c2)n2cncn2)cc1 (centres unmarked) [Compound 22a]
Subject of test: RPMI-8226 (Leukemia)
Units label: %
growth percent: 50.84
//
Compound: COc1ccc(/C=C/C(c2cc(OC)c(OC)c(OC)c2)n2ccnc2)cc1O (centres unmarked) [Compound 23b]
Subject of test: RPMI-8226 (Leukemia)
Units label: %
growth percent: 15.14
//
Compound: COc1ccc(/C=C/C(c2cc(OC)c(OC)c(OC)c2)n2cncn2)cc1O (centres unmarked) [Compound 22b]
Subject of test: RPMI-8226 (Leukemia)
Units label: %
growth percent: 19.89

Let us examine a further case.
Q: Given COc1cc(/C=C/C(/C=C/c2cc(OC)c(OC)c(OC)c2)n2ccnc2)cc(OC)c1OC [Compound 30] , state its recorded growth percent.
Ans: 60.48

====

Test system: SNB-75 (CNS Cancer)
Test: NCI60 screen (SRB)
Assay type: cell-based, human
Settings: one dose 10 µM, 48 h
growth percent of 50% or higher: met. Under 50%: not met.

The following compounds have reported results that may help.
Compound: COc1ccc(/C=C/C(c2cc(OC)c(OC)c(OC)c2)n2ccnc2)cc1O (centres unmarked) [Compound 23b]
Answer label: not met
--
Compound: COc1ccc(C2CC(n3ccnc3)c3cc(OC)c(OC)c(OC)c32)cc1O (centres unmarked) [Compound 27a]
Answer label: met
--
Compound: COc1cc(/C=C/C(/C=C/c2cc(OC)c(OC)c(OC)c2)n2ccnc2)cc(OC)c1OC
Answer label: met

Below: the item to evaluate.
Q: Check the entry COc1ccc(/C=C/C(c2cc(OC)c(OC)c(OC)c2)n2cncn2)cc1O (centres unmarked) [Compound 22b] : does growth percent equal or exceed 50%?
Ans: not met

====

Tested on: UACC-257 (Melanoma)
Experiment: NCI60 screen (SRB)
Type: cell-based, human
Details: one dose 10 µM, 48 h
# Condition met = growth percent below 60% (exclusive); Condition not met = growth percent at/above 60%

The following compounds have reported results that may help.
Compound: COc1ccc(/C=C/C(c2cc(OC)c(OC)c(OC)c2)n2cncn2)cc1 (centres unmarked) [Compound 22a]
Answer label: Condition met
//
Compound: COc1cc(/C=C/C(/C=C/c2cc(OC)c(OC)c(OC)c2)n2ccnc2)cc(OC)c1OC [Compound 30]
Answer label: Condition not met
//
Compound: COc1ccc(/C=C/C(c2cc(OC)c(OC)c(OC)c2)n2ccnc2)cc1O (centres unmarked) [Compound 23b]
Answer label: Condition met

Below: the item to evaluate.
Q: In the record for COc1ccc(/C=C/C(c2cc(OC)c(OC)c(OC)c2)n2cncn2)cc1O (centres unmarked) [Compound 22b] , is growth percent less than 60%?
Ans: Condition met

====

Readings of growth percent for the listed compounds
Test system: NCI-H322M (Non-Small Cell Lung Cancer)
Assay: NCI60 screen (SRB)
Format: cell-based, human
Conditions: one dose 10 µM, 48 h
Give the value, in units of %, as a plain number.

Compound: COc1ccc(/C=C/C(c2cc(OC)c(OC)c(OC)c2)n2cncn2)cc1O (centres unmarked) [Compound 22b]
growth percent [%]: 54.65

Compound: COc1ccc(C2CC(n3ccnc3)c3cc(OC)c(OC)c(OC)c32)cc1O (centres unmarked) [Compound 27a]
growth percent [%]: 101.51

Compound: COc1cc(/C=C/C(/C=C/c2cc(OC)c(OC)c(OC)c2)n2ccnc2)cc(OC)c1OC [Compound 30]
growth percent [%]: 96.68

Q: Given COc1ccc(/C=C/C(c2cc(OC)c(OC)c(OC)c2)n2cncn2)cc1 (centres unmarked) [Compound 22a] , state its recorded growth percent.
Ans: 61.24

Q: Consider next the compound COc1ccc(/C=C/C(c2cc(OC)c(OC)c(OC)c2)n2ccnc2)cc1O (centres unmarked) [Compound 23b] in the same way.
Ans: 45.84
